IC50 overview
Target sequence: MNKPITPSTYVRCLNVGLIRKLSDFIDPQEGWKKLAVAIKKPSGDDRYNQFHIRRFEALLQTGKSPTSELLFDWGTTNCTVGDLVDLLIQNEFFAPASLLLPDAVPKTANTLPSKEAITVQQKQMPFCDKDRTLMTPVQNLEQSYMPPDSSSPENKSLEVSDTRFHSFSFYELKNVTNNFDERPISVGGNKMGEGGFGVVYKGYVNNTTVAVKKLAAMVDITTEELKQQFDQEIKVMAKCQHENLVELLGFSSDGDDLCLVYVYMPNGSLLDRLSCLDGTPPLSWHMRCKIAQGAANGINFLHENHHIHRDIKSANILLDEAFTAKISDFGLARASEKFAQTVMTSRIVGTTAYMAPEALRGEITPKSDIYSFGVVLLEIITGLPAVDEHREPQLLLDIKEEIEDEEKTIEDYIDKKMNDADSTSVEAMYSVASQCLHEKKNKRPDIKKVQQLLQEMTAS
quantity_measured: IC50 (µM)

>>> measured_result("Cn1cc(NC(=O)c2cccc(-c3ccnc(NCC4CC4)c3)c2)c(C(N)=O)n1")
0.184
>>> measured_result("Cn1cc(NC(=O)c2cccc(-c3ccnc(NCC4CC4)c3)n2)c(C(=O)N2CCOCC2)n1")
1.83
